Please provide measured Kd for the entries that follow.
- TEST_TARGET: T1, recombinant HMG1 produced in E. coli as a calmodulin binding protein (CBP) fusion (human)
- T1 construct: also called rHMG1; rHMGB1
- T1 sequence (P09429 whole entry, the tested form may be a part): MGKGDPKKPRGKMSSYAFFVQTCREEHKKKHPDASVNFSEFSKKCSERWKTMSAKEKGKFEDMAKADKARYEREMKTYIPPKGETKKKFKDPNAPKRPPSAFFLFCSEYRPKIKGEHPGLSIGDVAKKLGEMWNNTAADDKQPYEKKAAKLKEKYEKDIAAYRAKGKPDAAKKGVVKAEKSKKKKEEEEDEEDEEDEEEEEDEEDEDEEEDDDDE
- EXPERIMENTAL_PROTOCOL: BIAcore 3000, mAb amine-coupled to CM5, HMG1 injected, steady-state model

Query: Can you look up the measured Kd of human anti-HMG1 antibody G4 (antibody, IgG1, V domains shown, full length IgG1 made from a human Fab phage clone; also called ATCC PTA-6258) VH: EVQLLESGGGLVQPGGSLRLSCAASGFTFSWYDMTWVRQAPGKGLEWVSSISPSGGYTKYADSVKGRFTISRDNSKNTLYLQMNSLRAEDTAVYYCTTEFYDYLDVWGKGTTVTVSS VL: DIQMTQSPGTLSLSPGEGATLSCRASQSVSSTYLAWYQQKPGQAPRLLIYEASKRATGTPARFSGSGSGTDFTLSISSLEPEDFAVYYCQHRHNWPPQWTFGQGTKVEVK for me?
Reply: 30 nM

Query: Can you look up the measured Kd of human anti-HMG1 antibody S10 (antibody, IgG1, V domains shown, full length IgG1 made from a human Fab phage clone) VH: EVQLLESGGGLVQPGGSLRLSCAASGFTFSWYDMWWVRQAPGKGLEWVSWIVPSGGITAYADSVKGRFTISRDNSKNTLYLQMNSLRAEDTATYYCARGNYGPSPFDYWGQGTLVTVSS VL: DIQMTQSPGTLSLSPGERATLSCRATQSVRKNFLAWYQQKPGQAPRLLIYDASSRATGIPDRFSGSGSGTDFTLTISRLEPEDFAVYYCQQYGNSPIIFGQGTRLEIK for me?
Reply: 54 nM

Query: Can you look up the measured Kd of human anti-HMG1 antibody G35 (antibody, IgG1, V domains shown, full length IgG1 made from a human Fab phage clone) VH: EVQLLESGGGLVQPGGSLRLSCAASGFTFSWYKMVWVRQAPGKGLEWVSSIVPSGGITIYADSVKGRFTISRDNSKNTLYLQMNSLRAEDTAVYYCARVQQWLGRPYFDYWGQGTLVTVSS VL: DIQMTQSPLSLPVTPGEPASISCRSSQSLLHGNGYNYLDWYLQRPGQSPQLLIYSGSNRASGVPDRFSGSGSGTDFTLKISRVEAEDVGVYYCMQSLQSRTFGQGTKVEIK for me?
Reply: 242 nM

Query: Can you look up the measured Kd of human anti-HMG1 antibody G16 (antibody, IgG1, V domains shown, full length IgG1 made from a human Fab phage clone) VH: EVQLLESGGGLVQPGGSLRLSCAASGFTFSWYKMTWVRQAPGKGLEWVSSISPSGGFTSYADSVKGRFTISRDNSKNTLYLQMNSLRAEDTAVYYCARDLDIRHAFDIWGQGTMVTVSS VL: DIQMTQSPGTLSLSPGESGTLSCRASESVSSRHFAWYQQKPGQAPRLLIYGASSRPTGIPDRFSGSGSGTDFTLTLSRLEPEDFAVYFCQYYGSSPYTFGGGTKVEMK for me?
Reply: 22 nM

Reference for the values: patent US20110287023A1
